Reported pIC50 values follow for various compounds
- experimental-target: Human immunodeficiency virus type 1 reverse transcriptase (Human immunodeficiency virus 1)
- method: Inhibition of HIV1 recombinant RNA-dependent DNA polymerase activity of reverse transcriptase assessed as incorporation of radioactive dTTP into poly(rA)/oligo(dT)
pIC50: −log10 of the molar value.
reported-metric: pIC50

>>> print(df.to_string())
                           substance_smiles  reported_metric  limit_qualifier  observed
0  O=C(CCl)Nc1ccc(Cl)cc1NS(=O)(=O)c1c(Cl)cccc1Cl            pIC50                =      4.49
1  O=c1[nH]c2ccc(Cl)cc2n1S(=O)(=O)c1c(Cl)cccc1Cl            pIC50                <      4.00
2  O=c1[nH]c2ccc(Cl)cc2n1S(=O)(=O)c1cc(Cl)cc(Cl)c1            pIC50                =      8.52
3  N#Cc1cccc(S(=O)(=O)N2CC(=O)Nc3ccc(Cl)cc32)c1            pIC50                <      4.40
4  O=C1CN(S(=O)(=O)c2cc(F)cc(F)c2)c2cc(Cl)ccc2N1            pIC50                <      4.40
5  N#Cc1cccc(S(=O)(=O)n2c(=O)[nH]c3ccc(Cl)cc32)c1            pIC50                =      6.44
6  O=c1[nH]c2ccc(Cl)cc2n1S(=O)(=O)c1cccc(F)c1            pIC50                =      6.88
7  O=c1[nH]c2ccc(Cl)cc2n1S(=O)(=O)c1ccc(F)cc1            pIC50                <      4.40
8  O=C(CCl)Nc1ccc(Cl)cc1NS(=O)(=O)c1cc(F)cc(F)c1            pIC50                =      4.56
9  O=C1CN(S(=O)(=O)c2cc(Cl)cc(Cl)c2)c2cc(Cl)ccc2N1            pIC50                <      4.40

* * *

- method: Selectivity index, CC50 for human MT4 cells to EC50 for HIV1 3B
- Assay type: toxicity, cell-based
- experimental-parameters: read-out: Ratio CC50/EC50
Rule: True for selectivity ratio not less than 800, False for anything less.

>>> df
                           substance_smiles    cat
0  O=c1[nH]c2ccc(Cl)cc2n1S(=O)(=O)c1ccccc1F   True
1  N#Cc1cccc(S(=O)(=O)N2CC(=O)Nc3ccc(Cl)cc32)c1  False
2  O=C1CN(S(=O)(=O)c2ccc(F)cc2)c2cc(Cl)ccc2N1  False
3  Cc1cc(C)cc(S(=O)(=O)Nc2cc(Cl)ccc2NC(=O)CCl)c1  False
4  O=C1CN(S(=O)(=O)c2cc(F)cc(F)c2)c2cc(Cl)ccc2N1  False
5  O=c1[nH]c2ccc(Cl)cc2n1S(=O)(=O)c1cccc(F)c1   True
6  O=C(CCl)Nc1ccc(Cl)cc1NS(=O)(=O)c1cc(F)cc(F)c1  False

* * *

Reported CC50 at 120 h values follow for various compounds
- method: Cytotoxicity against human MT4 cells after 5 days
- Type: cell-based
reported-metric: CC50 at 120 h

In [3]: df
Out[3]:
                                    compound  observed
 0  O=C1CN(S(=O)(=O)c2ccccc2F)c2cc(Cl)ccc2N1    197 µM
 1  O=C(CCl)Nc1ccc(Cl)cc1NS(=O)(=O)c1cc(Cl)cc(Cl)c1  > 292 µM
 2  N#Cc1cccc(S(=O)(=O)Nc2cc(Cl)ccc2NC(=O)CCl)c1  > 156 µM
 3  Cc1cc(C)cc(S(=O)(=O)N2CC(=O)Nc3ccc(Cl)cc32)c1   80.6 µM
 4  O=C1CN(S(=O)(=O)c2c(Cl)cccc2Cl)c2cc(Cl)ccc2N1  > 319 µM
 5  O=c1[nH]c2ccc(Cl)cc2n1S(=O)(=O)c1ccc(F)cc1  ≥ 355 µM
 6  O=C1CN(S(=O)(=O)c2ccc(F)cc2)c2cc(Cl)ccc2N1    172 µM
 7  Cc1cc(C)cc(S(=O)(=O)Nc2cc(Cl)ccc2NC(=O)CCl)c1   35.1 µM
 8  O=c1[nH]c2ccc(Cl)cc2n1S(=O)(=O)c1cccc(F)c1    128 µM
 9  N#Cc1cccc(S(=O)(=O)N2CC(=O)Nc3ccc(Cl)cc32)c1    186 µM
10  Cc1ccnc2c1NC(=O)c1cccnc1N2C1CC1 [NEVIRAPINE]   > 15 µM

* * *

Reported CC50 at 120 h values follow for various compounds
- method: Cytotoxicity against human MT4 cells after 5 days
- Type: cell-based
reported-metric: CC50 at 120 h

In [3]: df
Out[3]:
                            substance_smiles  reported_metric  observed
 0  O=C1CN(S(=O)(=O)c2c(F)cccc2F)c2cc(Cl)ccc2N1    CC50 at 120 h    180 µM
 1  O=C1CN(S(=O)(=O)c2cccc(F)c2)c2cc(Cl)ccc2N1    CC50 at 120 h    189 µM
 2  O=C1CN(S(=O)(=O)c2cc(F)cc(F)c2)c2cc(Cl)ccc2N1    CC50 at 120 h    187 µM
 3  O=c1[nH]c2ccc(Cl)cc2n1S(=O)(=O)c1c(Cl)cccc1Cl    CC50 at 120 h  > 331 µM
 4  N#Cc1cccc(S(=O)(=O)n2c(=O)[nH]c3ccc(Cl)cc32)c1    CC50 at 120 h    205 µM
 5  O=C(CCl)Nc1ccc(Cl)cc1NS(=O)(=O)c1c(F)cccc1F    CC50 at 120 h    175 µM
 6  O=C1CN(S(=O)(=O)c2cc(Cl)cc(Cl)c2)c2cc(Cl)ccc2N1    CC50 at 120 h  ≥ 206 µM
 7  O=C1Nc2ccc(Cl)cc2[C@@](C#CC2CC2)(C(F)(F)F)O1    CC50 at 120 h    > 6 µM
 8  O=C(CCl)Nc1ccc(Cl)cc1NS(=O)(=O)c1c(Cl)cccc1Cl    CC50 at 120 h    160 µM
 9  O=C(CCl)Nc1ccc(Cl)cc1NS(=O)(=O)c1cc(F)cc(F)c1    CC50 at 120 h    179 µM
10  O=c1[nH]c2ccc(Cl)cc2n1S(=O)(=O)c1cc(Cl)cc(Cl)c1    CC50 at 120 h    179 µM
11  O=c1[nH]c2ccc(Cl)cc2n1S(=O)(=O)c1ccccc1F    CC50 at 120 h  > 383 µM

* * *

Reported IC50 values follow for various compounds
- experimental-target: Human immunodeficiency virus type 1 reverse transcriptase (Human immunodeficiency virus 1)
- method: Inhibition of HIV1 recombinant RNA-dependent DNA polymerase activity of reverse transcriptase assessed as incorporation of radioactive dTTP into poly(rA)/oligo(dT)
reported-metric: IC50 (µM)

>>> df
                            substance_smiles                       experimental_target  limit_qualifier  observed
 0  O=C1CN(S(=O)(=O)c2cccc(F)c2)c2cc(Cl)ccc2N1  Human immunodeficiency virus type 1 reverse transcriptase (Human immunodeficiency virus 1)                >        40
 1  N#Cc1cccc(S(=O)(=O)Nc2cc(Cl)ccc2NC(=O)CCl)c1  Human immunodeficiency virus type 1 reverse transcriptase (Human immunodeficiency virus 1)                =       284
 2  O=C1CN(S(=O)(=O)c2c(F)cccc2F)c2cc(Cl)ccc2N1  Human immunodeficiency virus type 1 reverse transcriptase (Human immunodeficiency virus 1)                >        40
 3  O=C1CN(S(=O)(=O)c2c(Cl)cccc2Cl)c2cc(Cl)ccc2N1  Human immunodeficiency virus type 1 reverse transcriptase (Human immunodeficiency virus 1)                =      1.67
 4  Cc1cc(C)cc(S(=O)(=O)Nc2cc(Cl)ccc2NC(=O)CCl)c1  Human immunodeficiency virus type 1 reverse transcriptase (Human immunodeficiency virus 1)                =      3.36
 5  O=c1[nH]c2ccc(Cl)cc2n1S(=O)(=O)c1ccccc1F  Human immunodeficiency virus type 1 reverse transcriptase (Human immunodeficiency virus 1)                =      0.85
 6  O=C1CN(S(=O)(=O)c2ccc(F)cc2)c2cc(Cl)ccc2N1  Human immunodeficiency virus type 1 reverse transcriptase (Human immunodeficiency virus 1)                >        40
 7  O=C(CCl)Nc1ccc(Cl)cc1NS(=O)(=O)c1cc(Cl)cc(Cl)c1  Human immunodeficiency virus type 1 reverse transcriptase (Human immunodeficiency virus 1)                =      15.9
 8  O=C1CN(S(=O)(=O)c2ccccc2F)c2cc(Cl)ccc2N1  Human immunodeficiency virus type 1 reverse transcriptase (Human immunodeficiency virus 1)                >        40
 9  Cc1cc(C)cc(S(=O)(=O)N2CC(=O)Nc3ccc(Cl)cc32)c1  Human immunodeficiency virus type 1 reverse transcriptase (Human immunodeficiency virus 1)                >        40
10  O=C(CCl)Nc1ccc(Cl)cc1NS(=O)(=O)c1c(F)cccc1F  Human immunodeficiency virus type 1 reverse transcriptase (Human immunodeficiency virus 1)                =      30.4

These entries and their values trace back to ChEMBL document CHEMBL1153492.
